Please respond with reported logP for every item in the list.
experimental.details: Measurement of log P values by HPLC on reversed phase columns (methods [a] pH 2.3, [b] pH 2.7, [c] pH 7.8)
Format: physicochemical
recorded.conditions: HPLC on reversed phase column, method [b], pH 2.7

INPUT: // logP lookup, key: O=C(N[C@@H]1CC[C@@H]1c1cccc(F)c1C(F)(F)F)c1ncccc1Cl (relative stereo)
OUTPUT: 2.97^[b]

INPUT: Then what about the molecule O=C(N[C@@H]1CC[C@@H]1c1ccc(Cl)cc1Cl)c1cccnc1 (relative stereo) ?
OUTPUT: 2.23^[b]

INPUT: // repeat for O=C(N[C@@H]1CC[C@@H]1c1cccc(F)c1C(F)(F)F)c1ccccc1Br (relative stereo) and report
OUTPUT: 3.30^[b]

INPUT: Cool, now O=C(N[C@@H]1CC[C@H]1c1ccc(Cl)cc1C(F)(F)F)c1cccc(Cl)c1 (relative stereo)
OUTPUT: 4.46^[b]
